Several reports have described pKi for Receptor-type tyrosine-protein phosphatase F (Homo sapiens, UniProt P10586); a selection of those results is presented here.
pKi: −log10 of the molar value.

O=C(O)C(=O)Nc1cc2[nH]ccc2cc1C(=O)O; 3.26

q: Form field - read-out: pKi; system: Receptor-type tyrosine-protein phosphatase F (Homo sapiens, UniProt P10586); submitted item: CCC(CN(C(=O)C(=O)O)c1ccc(C[C@H](NC(=O)OC(C)(C)C)C(=O)NCCCCOc2cccc(O)c2C(=O)OC)cc1)C(=O)O (stereo partly specified)
Sequence (P10586 whole entry): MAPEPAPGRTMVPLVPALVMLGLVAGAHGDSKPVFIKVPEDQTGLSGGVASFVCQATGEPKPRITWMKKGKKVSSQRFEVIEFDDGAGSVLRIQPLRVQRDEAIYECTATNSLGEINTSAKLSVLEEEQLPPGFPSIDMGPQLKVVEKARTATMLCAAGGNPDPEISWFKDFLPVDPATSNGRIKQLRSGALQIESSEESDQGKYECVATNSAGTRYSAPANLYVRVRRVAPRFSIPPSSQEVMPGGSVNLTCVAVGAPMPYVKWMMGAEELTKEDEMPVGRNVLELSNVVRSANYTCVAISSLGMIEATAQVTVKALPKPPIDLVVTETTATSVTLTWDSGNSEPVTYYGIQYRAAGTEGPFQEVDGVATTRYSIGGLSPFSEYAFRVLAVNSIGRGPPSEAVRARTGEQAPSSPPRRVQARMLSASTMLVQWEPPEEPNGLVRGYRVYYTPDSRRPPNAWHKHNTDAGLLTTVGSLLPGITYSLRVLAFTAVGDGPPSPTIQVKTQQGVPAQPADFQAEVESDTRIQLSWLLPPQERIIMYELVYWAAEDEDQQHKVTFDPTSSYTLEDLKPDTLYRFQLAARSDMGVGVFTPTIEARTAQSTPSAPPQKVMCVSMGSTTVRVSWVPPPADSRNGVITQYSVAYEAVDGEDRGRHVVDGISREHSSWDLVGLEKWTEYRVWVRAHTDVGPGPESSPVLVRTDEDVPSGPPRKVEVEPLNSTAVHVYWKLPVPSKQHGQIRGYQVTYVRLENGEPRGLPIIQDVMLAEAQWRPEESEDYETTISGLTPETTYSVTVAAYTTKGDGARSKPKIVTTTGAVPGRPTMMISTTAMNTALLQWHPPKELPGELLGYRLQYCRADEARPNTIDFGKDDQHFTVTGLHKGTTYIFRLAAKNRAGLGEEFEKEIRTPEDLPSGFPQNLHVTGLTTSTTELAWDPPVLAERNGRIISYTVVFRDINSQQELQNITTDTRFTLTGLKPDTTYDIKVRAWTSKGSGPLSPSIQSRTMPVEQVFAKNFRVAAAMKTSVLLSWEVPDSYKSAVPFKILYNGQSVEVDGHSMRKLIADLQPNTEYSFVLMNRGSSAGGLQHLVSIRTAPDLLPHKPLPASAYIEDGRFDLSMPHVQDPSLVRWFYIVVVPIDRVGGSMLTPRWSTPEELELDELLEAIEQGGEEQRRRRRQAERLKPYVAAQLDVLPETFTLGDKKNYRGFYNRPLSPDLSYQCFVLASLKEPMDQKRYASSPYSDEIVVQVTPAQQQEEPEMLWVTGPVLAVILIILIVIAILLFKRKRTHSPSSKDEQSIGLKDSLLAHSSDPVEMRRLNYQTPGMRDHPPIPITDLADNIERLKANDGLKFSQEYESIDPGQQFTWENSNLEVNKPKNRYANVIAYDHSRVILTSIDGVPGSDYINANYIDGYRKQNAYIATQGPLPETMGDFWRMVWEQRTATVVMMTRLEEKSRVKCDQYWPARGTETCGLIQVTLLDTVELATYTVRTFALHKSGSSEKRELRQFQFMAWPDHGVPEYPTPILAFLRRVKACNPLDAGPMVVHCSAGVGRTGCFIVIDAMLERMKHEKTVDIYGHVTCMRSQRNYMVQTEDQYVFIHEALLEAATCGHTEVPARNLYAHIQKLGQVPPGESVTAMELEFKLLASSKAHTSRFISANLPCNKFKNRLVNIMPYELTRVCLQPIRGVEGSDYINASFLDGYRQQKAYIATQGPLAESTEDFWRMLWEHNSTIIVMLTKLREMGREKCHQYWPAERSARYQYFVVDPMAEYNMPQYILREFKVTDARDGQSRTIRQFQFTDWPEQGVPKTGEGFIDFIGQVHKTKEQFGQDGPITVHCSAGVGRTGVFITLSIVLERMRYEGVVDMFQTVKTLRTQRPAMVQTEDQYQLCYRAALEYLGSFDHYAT
a: < 4.52

q: Form field - read-out: pKi; system: Receptor-type tyrosine-protein phosphatase F (Homo sapiens, UniProt P10586); submitted item: `O=P(O)(O)C(F)(F)c1cccc(-c2cccc(C3CCCCC3)c2O)c1`
a: < 3.05

q: Form field - read-out: pKi; system: Receptor-type tyrosine-protein phosphatase F (Homo sapiens, UniProt P10586); submitted item: `O=C(O)COc1c(C(=O)O)sc(-c2ccccc2)c1Br`
a: < 3.30

q: Form field - read-out: pKi; system: Receptor-type tyrosine-protein phosphatase F (Homo sapiens, UniProt P10586); submitted item: COC(=O)c1c(O)cccc1OCCCCNC(=O)[C@H](Cc1ccc(OC(C)C(=O)O)c(C(=O)O)c1)NC(=O)[C@H](Cc1ccccc1)NC(=O)OC(C)(C)C (stereo partly specified)
a: < 4.52

q: Form field - read-out: pKi; system: Receptor-type tyrosine-protein phosphatase F (Homo sapiens, UniProt P10586); submitted item: `O=C(O)C(=O)Nc1cc2ccccc2cc1C(O)O`
a: 4.17
